study-target: CDK5/GST-p25 (Homo sapiens, UniProt Q00535)
Construct: The final construct, encoding for full-length human CDK5; made in house; host or cells: Sf21 insect cells (baculovirus co-infection)
Sequence (Q00535 whole entry): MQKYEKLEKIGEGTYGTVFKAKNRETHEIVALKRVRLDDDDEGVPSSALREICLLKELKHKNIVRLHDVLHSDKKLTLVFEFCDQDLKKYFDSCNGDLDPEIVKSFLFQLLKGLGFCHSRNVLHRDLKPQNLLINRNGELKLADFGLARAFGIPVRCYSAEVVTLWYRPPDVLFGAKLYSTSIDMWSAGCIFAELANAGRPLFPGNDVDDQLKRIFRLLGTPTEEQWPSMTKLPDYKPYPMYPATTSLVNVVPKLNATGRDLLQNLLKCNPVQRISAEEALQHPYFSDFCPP
Sequence (Q15078 108-307 partner limits assumed): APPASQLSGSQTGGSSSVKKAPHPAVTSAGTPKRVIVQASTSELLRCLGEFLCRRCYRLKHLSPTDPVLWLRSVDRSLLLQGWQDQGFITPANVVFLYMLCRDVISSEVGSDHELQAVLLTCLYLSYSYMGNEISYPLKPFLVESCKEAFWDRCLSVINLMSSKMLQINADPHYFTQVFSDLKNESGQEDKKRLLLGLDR
assay-procedure: Inhibition of CDK5/GST-p25 kinase activity (ELISA with time-resolved fluorescence readout)
Format: biochemical
details: class symbols
// reported IC50 per item

A selection of reference data follows.
CCCn1cc2c(C3C(=O)Nc4ccc(Br)cc43)nc(NCc3cccnc3)nc2n1 (centres unmarked) [Example 196]
< 300 nM
COCCNc1nc(C2C(=O)Nc3ccc(Br)cc32)c2cn(CCOC)nc2n1 (centres unmarked) [Example 235]
< 300 nM
O=C1Nc2c(cc([N+](=O)[O-])cc2[N+](=O)[O-])C1c1ncnc2c1cnn2C1CCCC1 (centres unmarked) [Example 60]
> 10000 nM
N#Cc1ccc2c(c1)C(c1nc(Nc3ccc(F)nc3)nc3c1CCC3)C(=O)N2 (centres unmarked) [Example 351]
> 10000 nM
O=C1Nc2ccc(F)cc2C1c1nc(NCCN2CCOCC2)nc2c1CCC2 (centres unmarked) [Example 318]
> 10000 nM

[Q] Consider the compound shown here: N#Cc1ccc2c(c1)C(c1ncnc3[nH]ncc13)C(=O)N2 (centres unmarked) [Example 109] What is its recorded IC50?
[A] < 300 nM

[Q] Any idea what its IC50 is? The compound is Cn1cc2c(C3C(=O)Nc4ccc(Br)cc43)nc(NCc3ccncc3)nc2n1 (centres unmarked) [Example 302]
[A] < 300 nM

[Q] Would you mind telling me what IC50 value was observed for COCCn1cc2c(C3C(=O)Nc4ccc(Br)cc43)nc(NC[C@H](C)O)nc2n1 (some centres unmarked) [Example 230] ?
[A] < 300 nM

[Q] For the compound CC(C)CNc1nc(C2C(=O)Nc3ccc(Cl)cc32)c2cn(C3CCCC3)nc2n1 (centres unmarked) [Example 280] , what IC50 is on record?
[A] > 10000 nM

[Q] # query: IC50 of entry O=C1Nc2cc(F)ccc2C1c1ncnc2c1cnn2C1CCCC1 (centres unmarked) [Example 66]
[A] > 10000 nM

[Q] Can you look up the measured IC50 of N#Cc1ccc2c(c1)C(c1nc(NCCc3cccnc3)nc3nn(C4CCCC4)cc13)C(=O)N2 (centres unmarked) [Example 114] for me?
[A] < 300 nM

[Q] Need IC50 of CNCCCn1cc2c(C3C(=O)Nc4ccc(Br)cc43)ncnc2n1 (centres unmarked) [Example 90] , thanks.
[A] < 300 nM

###

melting point: recorded values
Structures can show the parent of a compound that is named as a salt.

N#Cc1cccc2c1NC(=O)C2c1ncnc2c1cnn2C1CCCC1 (stereo not drawn) [Example 64]
327 to 332 °C

[Q] For the compound C[C@H](O)CNc1nc(C2C(=O)Nc3ccc(Cl)cc32)c2cn(C3CCCC3)nc2n1 (stereo partly drawn) [Example 374] , what melting point is on record?
[A] > 300 °C

[Q] Query (compound): O=C1Nc2cc(F)ccc2C1c1ncnc2nn(C3CCCCC3)cc12 (stereo not drawn) [Example 50] ; field requested: melting point
[A] 297 to 300 °C

[Q] What value of melting point has been recorded for this entry: CNCCCNc1nc(C2C(=O)Nc3ccc(Br)cc32)c2cn(C)nc2n1 (stereo not drawn) (as salt: hydrochloride) [Example 306]
[A] 271 to 273 °C

[Q] Looking for the measured melting point of Cn1cc2c(C3C(=O)Nc4ccc(Br)cc43)nc(Cl)nc2n1 (stereo not drawn) [Example 300] , can you help?
[A] > 300 °C

[Q] Form field: reported melting point of C[C@H](O)CNc1nc(C2C(=O)Nc3ccc(Br)cc32)c2cn(C)nc2n1 (stereo partly drawn) [Example 304]
[A] 338 to 340 °C

[Q] Which melting point value belongs to COCCn1cc2c(C3C(=O)Nc4ccc(Br)cc43)nc(NCCC3CCNCC3)nc2n1 (stereo not drawn) (as salt: hydrochloride) [Example 227] ?
[A] 248 to 251 °C

[Q] I would be grateful if you could share the reported melting point for CC(C)Cn1cc2c(C3C(=O)Nc4ccc(Br)cc43)nc(NCCN3CCOCC3)nc2n1 (stereo not drawn) [Example 264] .
[A] 282 to 287 °C
